System: SK-MEL-5 melanoma
test: NCI tumour cell line growth inhibition, 48 h
Recorded TGI, one value per entry.
# value in µM; strip the unit string

NCCSC(c1ccccc1)c1ccccc1    31.1

// field: TGI; key: CC1(N)CCN(c2cccnc2NC(=O)c2nc(-c3ncccc3C(F)(F)F)cnc2N)CC1 ; value = 33

// field: TGI; key: COC1=CC(c2ccc[nH]2)=N/C1=C\c1[nH]c(C)c(C(=O)CCCCC(=O)NC(C)(C)C)c1C ; value = 5.24

// field: TGI; key: CCOP(=O)(OCC)C(C)(CC)N/C(=N/C(NC(C)=O)(C(F)(F)F)C(F)(F)F)NC1=NC(C(F)(F)F)(C(F)(F)F)N=C(C(F)(F)F)O1 (stereo not drawn) ; value = 31.9
